B1: OR4K15 (parent)
chain: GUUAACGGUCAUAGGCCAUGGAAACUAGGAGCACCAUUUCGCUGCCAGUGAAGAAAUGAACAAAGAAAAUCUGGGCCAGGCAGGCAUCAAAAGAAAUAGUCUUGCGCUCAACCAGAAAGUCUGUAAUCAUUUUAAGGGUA

Variants of: B1
PROTOCOL DETAILS: self-cleavage, relative activity (ratio to wild type); higher = more cleavage; in vitro, sequencing; the parent is a self-cleaving ribozyme
READOUT TYPE: self-cleavage
No unit in the answer, only the number.

> print(dat)
   mutation.label   readout.type  observed.measurement
1      C42U A129G  self-cleavage                  1.47

Using known records, supply self-cleavage for A24C A56G
2.01

Answer with the recorded self-cleavage for the variant listed here: A33C A140U
1.4

Give the reported self-cleavage for this variant. A27G U127C
0.56

Supply reported self-cleavage belonging to this variant: U26C A36G
1.47

Provide one value: measured self-cleavage of U3A U37C
0.99

Values from the RNAGym collection of RNA variant scans (doi:10.7554/elife.90254)
